Origin of measurements: ChEMBL document CHEMBL3804810

I'd be grateful if you could share measured Ki for these entries.
assay-target: Cytosol aminopeptidase (Sus scrofa)
Sequence (P28839 whole entry): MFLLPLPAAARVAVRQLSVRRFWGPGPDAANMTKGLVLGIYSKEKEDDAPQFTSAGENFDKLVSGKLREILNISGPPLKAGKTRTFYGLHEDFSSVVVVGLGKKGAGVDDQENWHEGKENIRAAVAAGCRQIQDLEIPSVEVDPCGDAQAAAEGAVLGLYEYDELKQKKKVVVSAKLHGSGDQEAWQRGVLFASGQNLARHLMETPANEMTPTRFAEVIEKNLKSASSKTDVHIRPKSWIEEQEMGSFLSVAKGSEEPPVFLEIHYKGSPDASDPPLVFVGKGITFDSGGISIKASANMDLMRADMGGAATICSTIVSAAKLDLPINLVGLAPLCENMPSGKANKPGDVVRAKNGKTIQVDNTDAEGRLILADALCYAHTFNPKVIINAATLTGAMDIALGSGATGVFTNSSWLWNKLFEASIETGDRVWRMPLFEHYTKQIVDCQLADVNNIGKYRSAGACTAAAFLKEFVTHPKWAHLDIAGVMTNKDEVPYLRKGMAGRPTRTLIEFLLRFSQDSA
experiment-notes: Inhibition of porcine kidney leucine aminopeptidase M17 using Leu-AMC as substrate preincubated for 30 to 60 mins followed by substrate addition measured for 15 mins by spectrofluorimetric analysis
The reply should contain only the number, in µM.

Give the measured Ki for COc1ccc(CCNCC(N)P(=O)(O)CC(Cc2ccccc2)C(=O)O)cc1 (stereo not drawn)
21.1

Give the measured Ki for COc1ccc(CNCC(N)P(=O)(O)O)cc1 (stereo not drawn)
26.2

Give the measured Ki for Nc1ccc(CNCC(N)P(=O)(O)O)cc1 (stereo not drawn)
7.02

Give the measured Ki for NC(CNCCN1CCNCC1)P(=O)(O)O (stereo not drawn)
55.8

Give the measured Ki for NCCNCC(N)P(=O)(O)O (stereo not drawn)
289

Give the measured Ki for NCc1ccc(CNCC(N)P(=O)(O)O)cc1 (stereo not drawn)
26.5

Give the measured Ki for NC(CNC1CCCCC1)P(=O)(O)CC(Cc1ccccc1)C(=O)O (stereo not drawn)
28.3

Give the measured Ki for NC(CNCCc1ccccc1)P(=O)(O)O (stereo not drawn)
108

Give the measured Ki for CCCCCCNCC(N)P(=O)(O)O (stereo not drawn)
119

Give the measured Ki for CCCNCC(N)P(=O)(O)CC(Cc1ccccc1)C(=O)O (stereo not drawn)
21

Give the measured Ki for NC(CNC1CCCCCC1)P(=O)(O)CC(Cc1ccccc1)C(=O)O (stereo not drawn)
23.8

Give the measured Ki for NCC(N)P(=O)(O)CC(Cc1ccccc1)C(=O)O (stereo not drawn)
64.4

Give the measured Ki for CC(C)(C)c1ccc(CNCC(N)P(=O)(O)O)cc1 (stereo not drawn)
71.1

----------
assay-target: Cytosol aminopeptidase (Sus scrofa, UniProt P28839)
Sequence (P28839 whole entry): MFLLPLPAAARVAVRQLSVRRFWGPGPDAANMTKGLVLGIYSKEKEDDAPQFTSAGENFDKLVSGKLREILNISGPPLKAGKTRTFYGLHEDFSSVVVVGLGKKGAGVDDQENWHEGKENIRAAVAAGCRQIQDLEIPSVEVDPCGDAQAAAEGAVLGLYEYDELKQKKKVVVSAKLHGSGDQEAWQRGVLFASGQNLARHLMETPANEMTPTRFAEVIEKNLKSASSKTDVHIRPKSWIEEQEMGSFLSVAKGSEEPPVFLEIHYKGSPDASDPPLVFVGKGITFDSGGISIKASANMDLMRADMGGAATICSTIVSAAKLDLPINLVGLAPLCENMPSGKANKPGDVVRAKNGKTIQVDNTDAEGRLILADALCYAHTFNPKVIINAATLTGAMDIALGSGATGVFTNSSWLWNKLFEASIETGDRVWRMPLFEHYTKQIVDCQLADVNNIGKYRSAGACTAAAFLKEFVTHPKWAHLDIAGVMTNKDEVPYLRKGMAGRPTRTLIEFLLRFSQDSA
experiment-notes: Inhibition of porcine kidney leucine aminopeptidase M17 using L-leucine p-nitro-anilide as substrate by spectrophotometric analysis
I'd be grateful if you could share measured Ki for these entries.
The reply should contain only the number, in µM.

Give the measured Ki for NC(CN1CCCCC1)P(=O)(O)O (stereo not drawn)
1410

Give the measured Ki for CC(NCC(N)P(=O)(O)O)c1ccccc1 (stereo not drawn)
600

Give the measured Ki for NC(CNCc1ccccc1)P(=O)(O)O (stereo not drawn)
350

----------
assay-target: Cytosol aminopeptidase (Sus scrofa)
experiment-notes: Inhibition of porcine kidney leucine aminopeptidase M17 using Leu-AMC as substrate preincubated for 30 to 60 mins followed by substrate addition measured for 15 mins by spectrofluorimetric analysis
I'd be grateful if you could share measured pKi for these entries.
Note: pKi values are expressed as the negative base-10 logarithm of concentration in M.

Give the measured pKi for NC(CCC1CCCCC1)P(=O)(O)O (stereo not drawn)
6.68

Give the measured pKi for CN(C)CCNCC(N)P(=O)(O)O (stereo not drawn)
4.14

Give the measured pKi for NC1CCCCC1NCC(N)P(=O)(O)O (stereo not drawn)
3.62

Give the measured pKi for NC(CNCC1CCCO1)P(=O)(O)O (stereo not drawn)
4.16

Give the measured pKi for CC(C)CNCC(N)P(=O)(O)CC(Cc1ccccc1)C(=O)O (stereo not drawn)
4.82

Give the measured pKi for NC(CNC1CCCCCC1)P(=O)(O)O (stereo not drawn)
4.68

Give the measured pKi for NC(CNCC1CCNCC1)P(=O)(O)O (stereo not drawn)
4.16

Give the measured pKi for COc1ccc(CCNCC(N)P(=O)(O)O)cc1 (stereo not drawn)
4.71
